tested on: Rattus norvegicus; assay: Inhibition of paw swelling relative to the tebufelone in rat. Value was reported as Carrageenan paw edema index; assay type: functional
Reported CPE index maps to class as: lower (below 0.5), middle (0.5 to below 0.8), upper (0.8 or more)

compound=CCN(C)C(=O)c1cc(C(C)(C)C)c2c(c1)C(C)(C)CO2 category_label=upper
compound=CC(C)(C)c1cc(-c2ccco2)cc2c1OCC2(C)C category_label=upper
compound=CC(C)(C)c1cc(C(=O)NCCC2CC2)cc2c1OCC2(C)C category_label=lower
compound=CN(C)C(=N)c1cc(C(C)(C)C)c2c(c1)C(C)(C)CO2 category_label=lower
compound=CC(C)(C)c1cc(C(=O)N2CCCCC2)cc2c1OCC2(C)C category_label=middle
compound=CN(C)CCNC(=O)c1cc(C(C)(C)C)c2c(c1)C(C)(C)CO2 category_label=lower
compound=CC(C)(C)c1cc(-c2cccs2)cc2c1OCC2(C)C category_label=upper
compound=CCNC(=O)c1cc(C(C)(C)C)c2c(c1)C(C)(C)CO2 category_label=upper
compound=CCCCNC(=O)c1cc(C(C)(C)C)c2c(c1)C(C)(C)CO2 category_label=lower
compound="CC(C)(C)c1cc(-c2cn3cc[s+]([O-])c3n2)cc2c1OCC2(C)C (stereo unspecified)" category_label=upper
compound=CC(C)(C)c1cc(C(=O)NC2CC2)cc2c1OCC2(C)C category_label=middle
compound=CC(C)(C)c1cc(C(N)=O)cc2c1OCC2(C)C category_label=lower
compound=CCCNC(=O)Nc1cc(C(C)(C)C)c2c(c1)C(C)(C)CO2 category_label=lower
compound=CC(C)(C)c1cc(/C=C\c2cccs2)cc2c1OCC2(C)C category_label=middle
compound=CCCNC(=O)c1cc(C(C)(C)C)c2c(c1)C(C)(C)CO2 category_label=upper
compound=CC(C)(C)c1cc(C(=O)NCC2CC2)cc2c1OCC2(C)C category_label=lower
compound=Cc1cc(/C=C\c2cc(C(C)(C)C)c3c(c2)C(C)(C)CO3)on1 category_label=lower
compound=CC(C)(C)c1cc(C(=O)O)cc2c1OCC2(C)C category_label=lower
compound=CC(C)(C)c1cc(C(=O)NC2CCCC2)cc2c1OCC2(C)C category_label=lower
compound=COCCNC(=O)c1cc(C(C)(C)C)c2c(c1)C(C)(C)CO2 category_label=upper
compound=CC(C)(C)c1cc(-c2csc(N)n2)cc2c1OCC2(C)C category_label=lower
compound=CC(C)(C)c1cc(-c2cn3c(n2)S(=O)(=O)C=C3)cc2c1OCC2(C)C category_label=lower
compound="COc1ccc2cc([C@H](C)C(=O)O)ccc2c1 [NAPROXEN]" category_label=upper
compound=CC(C)(C)c1cc(C(=O)c2ccoc2)cc2c1OCC2(C)C category_label=middle
compound=CC(C)(C)c1cc(/C=C2/SC(N)=NC2=O)cc2c1OCC2(C)C category_label=lower
compound=CC1(C)CC(c2cc(C(C)(C)C)c3c(c2)C(C)(C)CO3)=NO1 category_label=middle
compound=Cc1nc(-c2cc(C(C)(C)C)c3c(c2)C(C)(C)CO3)no1 category_label=upper
compound=CC(C)(C)c1cc(-c2cscn2)cc2c1OCC2(C)C category_label=upper
compound=CC(C)NC(=O)c1cc(C(C)(C)C)c2c(c1)C(C)(C)CO2 category_label=upper
compound=CC(C)(C)c1cc(C(=O)N2CCSCC2)cc2c1OCC2(C)C category_label=middle
compound=CCCCCNC(=O)c1cc(C(C)(C)C)c2c(c1)C(C)(C)CO2 category_label=lower
compound=CC(C)(C)c1cc(C(=O)c2cccs2)cc2c1OCC2(C)C category_label=middle
compound=CCNC(=O)Nc1cc(C(C)(C)C)c2c(c1)C(C)(C)CO2 category_label=middle
compound=CC(C)(C)c1cc(C(=O)NC2CCC2)cc2c1OCC2(C)C category_label=lower
compound=COC(=O)c1cc(C(C)(C)C)c2c(c1)C(C)(C)CO2 category_label=lower
compound=CN(C(=O)c1cc(C(C)(C)C)c2c(c1)C(C)(C)CO2)C1CC1 category_label=upper
compound=CC(C)(C)c1cc(C(=O)c2ccco2)cc2c1OCC2(C)C category_label=middle
compound=CCCN(C)C(=O)c1cc(C(C)(C)C)c2c(c1)C(C)(C)CO2 category_label=upper
compound=CC(C)(C)c1cc(-c2csc(N=C(N)N)n2)cc2c1OCC2(C)C category_label=upper
